# Test system: GIST-T1 cells
# Protocol: cell proliferation inhibitory activity, ATP production (Test Example 1)
# Format: cell-based, human
# Condition info: Homo sapiens, GISTT1, 48 h; GIST-T1 cells (KIT^Δ560-578, imatinib-sensitive), cultured 2 days with compound, ATP production, n=3
pIC50: −log10 of the molar value.
Listed next: entries and their corresponding pIC50.
Readout name: pIC50

[
  {
    "Compound": "C[C@@H]1[C@@H](O)[C@H](C)C[C@@H]2C=C[C@H](C)[C@H](/C=C/C=C(\\Br)C(=O)NCc3cnco3)[C@@H]12",
    "Quantitative readout": 6.57
  },
  {
    "Compound": "C[C@@H]1[C@@H](O)[C@H](C)C[C@@H]2C=C[C@H](C)[C@H](/C=C/C=C(\\Br)C(=O)NCc3cncs3)[C@@H]12",
    "Quantitative readout": 6.89
  },
  {
    "Compound": "C[C@@H]1[C@@H](O)[C@H](C)C[C@@H]2C=C[C@H](C)[C@H](/C=C/C=C(\\Br)C(=O)NCc3cccnc3)[C@@H]12",
    "Quantitative readout": 6.77
  },
  {
    "Compound": "C/C(=C\\C=C\\[C@@H]1[C@H]2[C@H](C)[C@@H](O)[C@H](C)C[C@@H]2C=C[C@@H]1C)C(=O)NCc1cccnc1 [M-COPA, 2-methylcoprophilinamide, reference compound]",
    "Quantitative readout": 6.46
  }
]

* * *

Parameter: GI50. Scope: all listed entries.
# System: Hs925t (Skin cancer cell line)
# Protocol: cell proliferation inhibitory activity, WST-8 (Test Example 2)
# Assay type: cell-based
# Condition info: Homo sapiens, 48 h, 2 days with compound

[
  {
    "Compound": "C[C@@H]1[C@@H](O)[C@H](C)C[C@@H]2C=C[C@H](C)[C@H](/C=C/C=C(\\Br)C(=O)NCc3cncs3)[C@@H]12 [RS2]",
    "GI50 / nM": 0.3
  },
  {
    "Compound": "C/C(=C\\C=C\\[C@@H]1[C@H]2[C@H](C)[C@@H](O)[C@H](C)C[C@@H]2C=C[C@@H]1C)C(=O)NCc1cccnc1 [M-COPA, 2-methylcoprophilinamide, reference compound]",
    "GI50 / nM": 50
  },
  {
    "Compound": "C[C@H]1[C@@H]2[C@@H](/C=C/C=C(\\Br)C(=O)NCc3cncs3)[C@@H](C)C=C[C@H]2CC[C@@H]1O [RS6]",
    "GI50 / nM": 3
  },
  {
    "Compound": "C[C@@H]1[C@@H](O)[C@H](C)C[C@@H]2C=C[C@H](C)[C@H](/C=C/C=C(\\Br)C(=O)NCc3cccnc3)[C@@H]12 [RS5]",
    "GI50 / nM": 0.1
  },
  {
    "Compound": "C[C@H]1[C@@H]2[C@@H](/C=C/C=C(\\Br)C(=O)NCc3cccnc3)[C@@H](C)C=C[C@H]2CC[C@@H]1O [RS7]",
    "GI50 / nM": 30
  },
  {
    "Compound": "C[C@@H]1[C@@H](O)[C@H](C)C[C@@H]2C=C[C@H](C)[C@H](/C=C/C=C(\\Br)C(=O)NCc3cnco3)[C@@H]12 [RS1]",
    "GI50 / nM": 1
  },
  {
    "Compound": "C[C@@H]1[C@@H](O)[C@H](C)C[C@@H]2C=C[C@H](C)[C@H](/C=C/C=C(\\Br)C(=O)NCc3nccs3)[C@@H]12 [RS4]",
    "GI50 / nM": 10
  },
  {
    "Compound": "C[C@@H]1[C@@H](O)[C@H](C)C[C@@H]2C=C[C@H](C)[C@H](/C=C/C=C(\\Br)C(=O)NCc3cocn3)[C@@H]12 [RS3]",
    "GI50 / nM": 30
  }
]
